Tested on: CCRF-CEM
test description: NCI tumour cell line growth inhibition, 48 h
Active and inactive are the calls of the source. Cut-off read from the data, not from the text of the source: active = GI50 up to about 1.1 µM and inactive = higher.
Below, each entry is listed with its recorded GI50.

Answered cases to consult:
compound	target of assay	reported value
Nc1nc2ncn(CC(O)CO)c2c(=S)[nH]1 (configuration not stated)	CCRF-CEM	> 100 µM (inactive)
CCOC(=O)c1sc2nc(SC)nc(Nc3ccc(OC)c(OC)c3)c2c1N	CCRF-CEM	1.3 µM (inactive)
CC(=O)OC/C=C/Cn1nc(Br)c(=O)[nH]c1=O	CCRF-CEM	> 100 µM (inactive)
CN(C)c1ccc2nc3c(ccc4ccccc43)[o+]c2c1	CCRF-CEM	3.17 µM (inactive)
COC(NC(=O)Nc1ccccc1C)(C(F)(F)F)C(F)(F)F	CCRF-CEM	40.7 µM (inactive)

Continue with the compound presented below.
Sample COc1ccc(C[C@@H](CO)NC2=C(C#N)CCC2)cc1 ; GI50 observed: 42.6 µM (inactive)

---

System: MDA-MB-231
test description: NCI tumour cell line growth inhibition, 48 h
Active and inactive are the calls of the source. Cut-off read from the data, not from the text of the source: active = GI50 up to about 1.1 µM and inactive = higher.
// one of Yes = active, No = inactive, no free text

Previously resolved entries follow.
compound	assigned label
COc1ccc(N[C@H](C[S+]([O-])c2ccc(C)cc2)C(F)(F)F)cc1 (stereo partly specified)	No
C=C1C(=O)OC2CC(C)C3CC(O)OC(OCC)C3(C)CC12 (stereo unspecified)	No
O=C(O)/C(Cc1c[nH]nn1)=N\O	No

IN: Name the outcome recorded for CC(C(=O)OCc1ccccc1)(c1ccco1)N1C(=O)OC(c2ccccc2)C1c1ccccc1 (stereo unspecified) in the assay.
OUT: No

IN: Name the outcome recorded for COC(=O)C(CBr)CBr in the assay.
OUT: No

IN: Name the outcome recorded for Clc1ccc(/C=N/c2ccc(Oc3ccc(Cl)cc3)c(Cl)c2)cc1 in the assay.
OUT: No

IN: Name the outcome recorded for CCOC(CN(C)C(=S)Nc1cccc2ccccc12)OCC in the assay.
OUT: No

IN: Name the outcome recorded for O=c1oc2ccccc2n1CCN1CCCCC1 in the assay.
OUT: No

IN: Name the outcome recorded for CC(C)=CCCC1(C)C2COC(=O)C21 (stereo unspecified) in the assay.
OUT: No

IN: Name the outcome recorded for CC(C)(C)OC(=O)N(CCCCNC(=O)c1ccccc1)CCCNC(=O)c1ccccc1 in the assay.
OUT: No

IN: Name the outcome recorded for COCOc1cc(OCOC)cc(C(=O)Oc2ccccc2)c1 in the assay.
OUT: No

---

Below, each entry is listed with its recorded GI50.
Test system: NCI-H23
test description: NCI tumour cell line growth inhibition, 48 h
Active and inactive are the calls of the source. Rule as the data show it: active = GI50 up to about 1.1 µM and inactive = higher.

molecule	GI50
Cc1ccsc1/C=N/Nc1ncccn1	> 100 µM (inactive)

Continue with the molecule presented below.
Sample C#CN1C(=O)c2c(c(-c3ccccc3)c(-c3ccc(Oc4ccc(-c5c(-c6ccccc6)c6c(c(-c7ccccc7)c5-c5ccccc5)C(=O)N(C#C)C6=O)cc4)cc3)c(-c3ccccc3)c2-c2ccccc2)C1=O ; GI50 observed: > 100 µM (inactive)

---

System: RXF 631
test description: NCI tumour cell line growth inhibition, 48 h
Active and inactive are the calls of the source. No stated cut-off is given here; in the data, active = GI50 up to about 1.1 µM and inactive = higher.
experimental endpoint: GI50

compound	GI50
C1CN1c1nc(N2CC2)nc(N2CC2)n1	11.3 µM (inactive)
COc1ccc(-c2nc3c(nc2-c2ccc(OC)cc2)C(N)=NS(=O)(=O)N3)cc1	> 100 µM (inactive)

Sample COC(=O)C1=C(C)N(NC(N)=O)C2(N)N(NC(N)=O)C(C)=C(C(=O)OC)C12C(=O)OC (configuration not stated) ; GI50 observed: > 100 µM (inactive)

Sample O=NN(CCCl)C(=O)NCCCl ; GI50 observed: 80.2 µM (inactive)
